tested on: AM-38 (Glioblastoma); assay: Bliss excess, mean over the matrix (fraction); higher = more synergy;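 note: after 72 h of two-drug dosing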
This section presents compounds with their documented Bliss excess values.
Assay readout: Bliss excess

[[record]]
compound = "CC(=O)c1c(C)c2cnc(Nc3ccc(N4CCNCC4)cn3)nc2n(C2CCCC2)c1=O [Palbociclib] + CC1(C)CCC(CN2CCN(c3ccc(C(=O)NS(=O)(=O)c4ccc(NCC5CCOCC5)c([N+](=O)[O-])c4)c(Oc4cnc5[nH]ccc5c4)c3)CC2)=C(c2ccc(Cl)cc2)C1 [Venetoclax] (first compound max 10 µM, 7x7, partner max 1 µM)"
target_or_test_system = "AM-38 (Glioblastoma)"
quantitative_readout = -0.0058

[[record]]
compound = "CC1(C)CCC(CN2CCN(c3ccc(C(=O)NS(=O)(=O)c4ccc(NCC5CCOCC5)c([N+](=O)[O-])c4)c(Oc4cnc5[nH]ccc5c4)c3)CC2)=C(c2ccc(Cl)cc2)C1 [Venetoclax] + CN(C)CCCOc1ccc(-c2ccc3ncc4c(c3c2)n(C2CCOCC2)c(=O)n4C)cn1 [AZD0156] (first compound max 1 µM, 7x7, partner max 1 µM)"
target_or_test_system = "AM-38 (Glioblastoma)"
quantitative_readout = -0.0183

